# System: TE-8 (Esophageal Squamous Cell Carcinoma);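 also: after 72 h of two-drug dosing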
# Measurement Notes: Bliss excess, mean over the matrix (fraction); higher = more synergy
In this scheme, each record receives a class according to its Bliss excess; the ranges are LOW: < -0.08; MEDIUM: ≥ -0.08 and < -0.007; HIGH: ≥ -0.007

| Compound | Assigned Category |
| --- | --- |
| COc1nnc2ccc(N3CCC(c4ccc(OCCN5CCN(C)C(=O)[C@H]5C)cc4)CC3)nn12 [AZD5153] + CC1(C)CCC(CN2CCN(c3ccc(C(=O)NS(=O)(=O)c4ccc(NCC5CCOCC5)c([N+](=O)[O-])c4)c(Oc4cnc5[nH]ccc5c4)c3)CC2)=C(c2ccc(Cl)cc2)C1 [Venetoclax] (first compound max 1 µM, 7x7, partner max 1 µM) | LOW |

Query: Category of COc1cc2c(cc1OCCCCCOc1cc3c(cc1OC)C(=O)N1C=C(C)C[C@H]1C=N3)N=C[C@@H]1CC(C)=CN1C2=O [SG3199] + O=C(c1cc(Cc2n[nH]c(=O)c3ccccc23)ccc1F)N1CCN(C(=O)C2CC2)CC1 [Olaparib] (first compound max 0.001 µM, 7x7, partner max 10 µM) , please.
Result: MEDIUM

Query: Category of O=C(c1cc(Cc2n[nH]c(=O)c3ccccc23)ccc1F)N1CCN(C(=O)C2CC2)CC1 [Olaparib] + CC1(C)CCC(CN2CCN(c3ccc(C(=O)NS(=O)(=O)c4ccc(NCC5CCOCC5)c([N+](=O)[O-])c4)c(Oc4cnc5[nH]ccc5c4)c3)CC2)=C(c2ccc(Cl)cc2)C1 [Venetoclax] (first compound max 10 µM, 7x7, partner max 1 µM) , please.
Result: LOW

Query: Category of CN(CCO)CC[C@H](CSc1ccccc1)Nc1ccc(S(=O)(=O)NC(=O)c2ccc(N3CCC([C@@H](O)c4ccccc4-c4ccc(Cl)cc4)CC3)cc2)cc1S(=O)(=O)C(F)(F)F [AZD4320] + C1CN(CCC1(C(=O)N[C@@H](CCO)C2=CC=C(C=C2)Cl)N)C3=NC=NC4=C3C=CN4 [Capivasertib] (first compound max 1 µM, 7x7, partner max 3 µM) , please.
Result: MEDIUM

Query: Category of CC1(C)CCC(CN2CCN(c3ccc(C(=O)NS(=O)(=O)c4ccc(NCC5CCOCC5)c([N+](=O)[O-])c4)c(Oc4cnc5[nH]ccc5c4)c3)CC2)=C(c2ccc(Cl)cc2)C1 [Venetoclax] + Cc1cc2ncnn2cc1Nc1ncc2c(n1)n(C1CCOCC1)c(=O)n2C [AZD7648] (first compound max 1 µM, 7x7, partner max 10 µM) , please.
Result: MEDIUM

Query: Category of CN(C)CCCOc1ccc(-c2ccc3ncc4c(c3c2)n(C2CCOCC2)c(=O)n4C)cn1 [AZD0156] + C[C@@H]1COCCN1C2=NC(=NC(=C2)C3(CC3)[S@](=N)(=O)C)C4=C5C=CNC5=NC=C4 [AZD6738] (first compound max 1 µM, 7x7, partner max 10 µM) , please.
Result: HIGH

Query: Category of C[C@@H](Oc1cc(-c2cnn(C3CCNCC3)c2)cnc1N)c1c(Cl)ccc(F)c1Cl [Crizotinib] + Cn1cnc2c(F)c(Nc3ccc(Br)cc3Cl)c(C(=O)NOCCO)cc21 [Selumetinib] (first compound max 10 µM, 7x7, partner max 10 µM) , please.
Result: LOW

Query: Category of Cc1c2c(nn1C)CSCc1cc(n(C)n1)CSc1cc(c3ccccc3c1)OCCCc1c(C(=O)O)n(C)c3c-2c(Cl)ccc13 [AZD5991] + C1CN(CCC1(C(=O)N[C@@H](CCO)C2=CC=C(C=C2)Cl)N)C3=NC=NC4=C3C=CN4 [Capivasertib] (first compound max 1 µM, 7x7, partner max 3 µM) , please.
Result: HIGH

Query: Category of NC1(C(=O)N[C@@H](CCO)c2ccc(Cl)cc2)CCN(c2ncnc3[nH]ccc23)CC1 [Capivasertib] + COc1nnc2ccc(N3CCC(c4ccc(OCCN5CCN(C)C(=O)[C@H]5C)cc4)CC3)nn12 [AZD5153] (first compound max 10 µM, 7x7, partner max 1 µM) , please.
Result: MEDIUM

Query: Category of CN(CCO)CC[C@H](CSc1ccccc1)Nc1ccc(S(=O)(=O)NC(=O)c2ccc(N3CCC([C@@H](O)c4ccccc4-c4ccc(Cl)cc4)CC3)cc2)cc1S(=O)(=O)C(F)(F)F [AZD4320] + C[C@@H](Nc1cc(F)cc(F)c1)c1cc(C(=O)N(C)C)cc2c(=O)cc(N3CCOCC3)oc12 [AZD8186] (first compound max 1 µM, 7x7, partner max 3 µM) , please.
Result: HIGH
